Method: reversal of MRP1-mediated doxorubicin resistance, pilot screen, H69AR cells, doxorubicin co-treatment (AID 601)
Experimental Setup: H69AR cells, CellTiter-Glo, 72 h; compound alone cytotoxicity; at 10 µM
Assign labels as follows, please: true for viability below 90%; false for viability equal to or exceeding 90%.

                                   compound  discrete_label
0  O=C1c2ccccc2NC2CCCCCN12 (stereo not drawn)           false

**Q:** Is it true that viability reported for CCOCCCN(Cc1cc2cc(C)cc(C)c2[nH]c1=O)C(=O)N(CC)CC is less than 90%?
**A:** true

**Q:** Check if viability falls below 90% for O=C(/C=C/c1ccccc1)c1ccccc1 .
**A:** true

**Q:** Quick check: viability of COc1ccccc1NC(=O)N1c2ccc(F)cc2CCC1C (stereo not drawn) under 90%?
**A:** false

**Q:** Strictly below 90% in viability? O=C(CN1C(=O)c2cccc3cccc1c23)Nc1ccccc1C(=O)NCc1ccco1
**A:** true

**Q:** Lab note: confirm whether the reported viability for this compound is below 90%, equality not counting. compound: COc1ccc(Nc2nc(-c3sc(N)nc3C)cs2)cc1
**A:** true

**Q:** Answer whether the compound COC(=O)c1[nH]c(C)c(/C(O)=C2\C(=O)C(=O)N(CCCN3CCOCC3)C2c2ccccn2)c1C (stereo not drawn) has viability strictly less than 90%
**A:** false

**Q:** Hello, is viability of the following compound strictly smaller than 90%? Cc1ccc(/C=c2\s/c(=C(/C#N)C(=O)N3CCCC3)n(Cc3ccco3)c2=O)s1
**A:** true

----------
Method: reversal of MRP1-mediated doxorubicin resistance, pilot screen, H69AR cells, doxorubicin co-treatment (AID 601)
Experimental Setup: H69AR cells + 2 uM doxorubicin, CellTiter-Glo, 72 h; at 10 µM; stronger effect = higher value
Endpoint Label: differential viability (reversal) (%)
Reply with just the number (in %).

Some solved entries appear below for comparison.
>>> print(df.to_string())
                                 cpd_smiles  number
0            c1ccc(-c2nn3nnnc3c3ccccc23)cc1    0.43
1  CN1CCN(C(=O)C2(NC(=O)Nc3cccc(F)c3)CCCCC2)CC1   -9.36

Entry Cc1ccc(Nc2nc(Oc3ccc(=O)[nH]n3)nc(N(C)C)n2)cc1 , differential viability (reversal) reported as 16.1

Value of differential viability (reversal) reported for the compound CC(=O)Nc1ccc(S(=O)(=O)N(CC(=O)O)Cc2ccccc2)cc1 is -6.14

Short answer for O=C(c1ccc(S(=O)(=O)N2CCOCC2)cc1)N1CCc2ccccc2C1 : differential viability (reversal) was 2.92

Sure, the documented differential viability (reversal) for CC(=O)OCC(=O)[C@@]1(OC(C)=O)[C@@H](C)C[C@H]2[C@@H]3C[C@H](F)C4=CC(=O)C=C[C@]4(C)[C@@]3(F)[C@@H](O)C[C@@]21C is 5.08

Input COC(=O)c1cc(=O)n2c(-c3ccc(OC)cc3)csc2n1 . Output differential viability (reversal): 10.6

The compound listed as Cc1ccc2nc(NC(=O)CN(C)S(=O)(=O)c3cccc4nsnc34)sc2c1 shows differential viability (reversal) equal to -15.1

Reported differential viability (reversal) ( Cc1cc(NC(=O)c2ccc(Cl)cc2)no1 ) = 5.82

Just so you know, measured differential viability (reversal) for COc1cccc(OCc2nnc(SCC(=O)OCc3ccccc3)o2)c1 came out at 5.81
